- run.description: Solubility of compound of Formula (I) in water, buffers and surfactant solutions
- Type: physicochemical
- assay.conditions: 50% w/v Poloxamer 188 in water, pH 7.23, aqueous with cosolvent or surfactant or cyclodextrin, thermodynamic from solid, 50% w/v Poloxamer 188 in water; pH after equilibration 7.23; read-out: Solubility Sample-2
outcome.measure: solubility (µg/mL)

compound: Cn1c(=O)c2c(ncn2CC(=O)Nc2ccc(-c3ccccc3)nn2)n(C)c1=O [compound of Formula (I)]
unit.of.measurement: µg/mL
measured: 8.39

---

- run.description: Solubility of compound of Formula (I) in water, buffers and surfactant solutions
- Assay type: physicochemical
- assay.conditions: 2% w/v Tween 80 in water, pH 7.72, aqueous with cosolvent or surfactant or cyclodextrin, thermodynamic from solid, 2% w/v Tween 80 in water; pH after equilibration 7.72; read-out: Solubility Sample-1
outcome.measure: solubility

compound: Cn1c(=O)c2c(ncn2CC(=O)Nc2ccc(-c3ccccc3)nn2)n(C)c1=O [compound of Formula (I)]
outcome.measure: solubility
measured: 22.4 µg/mL

---

- run.description: Solubility of compound of Formula (I) in water, buffers and surfactant solutions
- Type: physicochemical
- assay.conditions: 2% w/v SLS in water, pH 8.82, aqueous with cosolvent or surfactant or cyclodextrin, thermodynamic from solid, 2% w/v SLS is water; pH after equilibration 8.82; read-out: Solubility Sample-1

test.smiles: Cn1c(=O)c2c(ncn2CC(=O)Nc2ccc(-c3ccccc3)nn2)n(C)c1=O
solubility, µg/mL: 458

---

- run.description: Solubility of compound of Formula (I) in water, buffers and surfactant solutions
- Format: physicochemical
- assay.conditions: water, pH 7.95, water, thermodynamic from solid, Water; pH after equilibration 7.95; read-out: Solubility Average (n = 2)

test.smiles: Cn1c(=O)c2c(ncn2CC(=O)Nc2ccc(-c3ccccc3)nn2)n(C)c1=O
solubility [µg/mL]: 5.99

---

- run.description: Solubility of compound of Formula (I) in water, buffers and surfactant solutions
- Type: physicochemical
- assay.conditions: 29% w/v Tween 80 in pH 1.2 buffer, pH 1.2, aqueous with cosolvent or surfactant or cyclodextrin, thermodynamic from solid, 29% w/v Tween 80 in pH 1.2 buffer; pH after equilibration 1.25; read-out: Solubility Average (n = 2)

test.smiles: Cn1c(=O)c2c(ncn2CC(=O)Nc2ccc(-c3ccccc3)nn2)n(C)c1=O
solubility: 37.2 µg/mL

---

- run.description: Solubility of compound of Formula (I) in water, buffers and surfactant solutions
- Format: physicochemical
- assay.conditions: 20% w/v SLS in pH 1.2 buffer, pH 1.2, aqueous with cosolvent or surfactant or cyclodextrin, thermodynamic from solid, 20% w/v SLSixpB 1.2 buffer; pH after equilibration 1.33; read-out: Solubility Sample-2
outcome.measure: solubility (µg/mL)

compound: Cn1c(=O)c2c(ncn2CC(=O)Nc2ccc(-c3ccccc3)nn2)n(C)c1=O [compound of Formula (I)]
measured: 2170

---

- run.description: Solubility of compound of Formula (I) in water, buffers and surfactant solutions
- Assay type: physicochemical
- assay.conditions: 50% w/v Poloxamer 188 in pH 1.2 buffer, pH 1.2, aqueous with cosolvent or surfactant or cyclodextrin, thermodynamic from solid, 50% w/v Poloxamer 188 in pH 1.2 buffer; pH after equilibration 1.25; read-out: Solubility Average (n = 2)

compound: Cn1c(=O)c2c(ncn2CC(=O)Nc2ccc(-c3ccccc3)nn2)n(C)c1=O [compound of Formula (I)]
solubility: 35.5 µg/mL

---

- run.description: Solubility of compound of Formula (I) in water, buffers and surfactant solutions
- Assay type: physicochemical
- assay.conditions: citrate buffer, pH 3, aqueous buffer, thermodynamic from solid, pH 3.0 (Citrate buffer); read-out: Solubility Sample-2
outcome.measure: solubility (µg/mL)

test.smiles: Cn1c(=O)c2c(ncn2CC(=O)Nc2ccc(-c3ccccc3)nn2)n(C)c1=O
unit.of.measurement: µg/mL
measured: 7.78
